The values you see were collected from patent US7300918B2.

System: Hep G2 cells
method.notes: Cholesterol measurement in Hep G2 cells exposed to HMG CoA Reductase peptides
Assay type: cell-based, human
experimental.conditions: cell + media, 1 ΦM, 24 hrs
Below: a set of entries, each annotated with reported Total Cholesterol.

# substance, target.desc, Total Cholesterol
measured = [
    ("N-EPEIELPREPRPNEE-C [Peptide 6, oligopeptide corresponding to a hydrophilic amino acid maximum of human hydroxy-methyl-glutaryl-CoA-reductase]", "Hep G2 cells", "192.0 ± 8.0 Φ gm/mg protein"),
    ("N-RVLEEEENK-C [Peptide 3, oligopeptide corresponding to a hydrophilic amino acid maximum of human hydroxy-methyl-glutaryl-CoA-reductase]", "Hep G2 cells", "201.3 ± 3.3 Φ gm/mg protein"),
    ("N-QKCDSVEE-C [Peptide 4, oligopeptide corresponding to a hydrophilic amino acid maximum of human hydroxy-methyl-glutaryl-CoA-reductase]", "Hep G2 cells", "184.3 ± 5.5 Φ gm/mg protein"),
    ("N-EETGINRERKVE-C [Peptide 5, oligopeptide corresponding to a hydrophilic amino acid maximum of human hydroxy-methyl-glutaryl-CoA-reductase]", "Hep G2 cells", "197.0 ± 9.2 Φ gm/mg protein"),
    ("N-ELSRESREGR-C [Peptide 2, oligopeptide corresponding to a hydrophilic amino acid maximum of human hydroxy-methyl-glutaryl-CoA-reductase]", "Hep G2 cells", "158.3 ± 6.3 Φ gm/mg protein"),
]

Proceed to the following item.
Write down Total Cholesterol measured for item N-SQDEVREN-C [Peptide 1, oligopeptide corresponding to a hydrophilic amino acid maximum of human hydroxy-methyl-glutaryl-CoA-reductase]
158.7 ± 5.6 Φ gm/mg protein

====

Below: a set of entries, each annotated with reported Cholesterol Content Cell.
Test system: Hep G2 cells
method.notes: Cholesterol measurement in Hep G2 cells exposed to HMG CoA Reductase peptides
Assay type: cell-based, human
experimental.conditions: 10 ΦM, 24 hrs, triplicate

Check out these entries, answers already filled in.
# substance, value.measured
records = [
    ("N-ELSRESREGR-C [Peptide 2, oligopeptide corresponding to a hydrophilic amino acid maximum of human hydroxy-methyl-glutaryl-CoA-reductase]", "85.0 ± 8.4 Φ gm/mg protein"),
    ("N-EETGINRERKVE-C [Peptide 5, oligopeptide corresponding to a hydrophilic amino acid maximum of human hydroxy-methyl-glutaryl-CoA-reductase]", "149.0 ± 4.4 Φ gm/mg protein"),
    ("N-EPEIELPREPRPNEE-C [Peptide 6, oligopeptide corresponding to a hydrophilic amino acid maximum of human hydroxy-methyl-glutaryl-CoA-reductase]", "136.0 ± 12.2 Φ gm/mg protein"),
]

Write down Cholesterol Content Cell measured for item N-RVLEEEENK-C [Peptide 3, oligopeptide corresponding to a hydrophilic amino acid maximum of human hydroxy-methyl-glutaryl-CoA-reductase]
135.0 ± 4.5 Φ gm/mg protein

Write down Cholesterol Content Cell measured for item N-SQDEVREN-C [Peptide 1, oligopeptide corresponding to a hydrophilic amino acid maximum of human hydroxy-methyl-glutaryl-CoA-reductase]
88.6 ± 1.6 Φ gm/mg protein

Write down Cholesterol Content Cell measured for item N-QKCDSVEE-C [Peptide 4, oligopeptide corresponding to a hydrophilic amino acid maximum of human hydroxy-methyl-glutaryl-CoA-reductase]
126.1 ± 4.2 Φ gm/mg protein

====

Test system: Hep G2 cells
method.notes: Cholesterol measurement in Hep G2 cells exposed to HMG CoA Reductase peptides
Assay type: cell-based, human
experimental.conditions: 100 ΦM, 24 hrs
Description: Cholesterol Measurement in Hep G2 Cells Exposed to HMG CoA Reductase Peptides: A. Selection of therapeutic oligopeptides for these expenments • i. The peptides were selected according to the method described herein. […] B. Materials and methods • i. […] Cholesterol was determined in the samples and standards using colorimetric assay (Sigma Kit). • viii. Protein was determined by Lowry's method and the results were expressed as Φgm cholesterol/mg protein. […]
With a cut-off of 9%, any Cholesterol Lowering in % of Control strictly below it is called True; any Cholesterol Lowering in % of Control meeting it or above is called False.

Strictly below 9% in Cholesterol Lowering in % of Control? N-SQDEVREN-C [Peptide 1, oligopeptide corresponding to a hydrophilic amino acid maximum of human hydroxy-methyl-glutaryl-CoA-reductase]
False

Strictly below 9% in Cholesterol Lowering in % of Control? N-ELSRESREGR-C [Peptide 2, oligopeptide corresponding to a hydrophilic amino acid maximum of human hydroxy-methyl-glutaryl-CoA-reductase]
False

Strictly below 9% in Cholesterol Lowering in % of Control? N-RVLEEEENK-C [Peptide 3, oligopeptide corresponding to a hydrophilic amino acid maximum of human hydroxy-methyl-glutaryl-CoA-reductase]
False

Strictly below 9% in Cholesterol Lowering in % of Control? N-EETGINRERKVE-C [Peptide 5, oligopeptide corresponding to a hydrophilic amino acid maximum of human hydroxy-methyl-glutaryl-CoA-reductase]
True
